pIC50: −log10 of the molar value.
pIC50 for Cytochrome P450 2B6 (Homo sapiens), merged from several publications.

{"compound": "CCC(=O)c1ccc(Cl)cc1-c1cc(=O)n([C@@H](Cc2ccccc2)C(=O)Nc2ccc(C(=O)O)cc2)nc1OC", "pIC50": "< 4.30"}
{"compound": "NC(=O)c1nc(-c2c(Cl)cccc2Cl)oc1Nc1ccc(C(=O)N2CCS(=O)(=O)CC2)cc1", "pIC50": "< 4.52"}
{"compound": "Oc1cccc(-c2cnc(-c3cccc(O)c3)s2)c1", "pIC50": 4.85}

Which measured pIC50 value corresponds to Oc1cccc(-c2ccc(-c3cccc(O)c3)cc2)c1 ? 5.11

Follow-up item: CS(=O)(=O)c1ccc2c(c1)CN([C@H]1CO[C@H](c3cc(F)ccc3F)[C@@H](N)C1)C2 < 4.60

Follow-up item: NC(=O)c1nc(-c2c(Cl)cccc2Cl)oc1Nc1ccc(C(=O)N2CCS(=O)(=O)CC2)c(F)c1 < 4.52
